Entry source: paper PMC5540273

test system: MYLK4; settings: concentration: 1 μM, replicates: in singlicate; n = 1;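 note: KINOMEscan kinase panel screen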
Observation Type: %Inh (%)
Report as a plain number; the unit % is understood.

CC(C)(C)n1cnc2c(N)ncnc21
0
CN1c2ccc(CNc3ccc(F)cc3)cc2-c2c(cnn2C)S1(=O)=O
0
Cc1cccc(-c2nc(Nc3ccc4ncsc4c3)c3ccccc3n2)n1
0

## Input Provide value of %Inh for this record tested with MYLK4: NS(=O)(=O)CCc1cccc(Nc2nccc(-c3c(-c4cccc(NC(=O)c5c(F)cccc5F)c4)nn4ccccc34)n2)c1
## Output 0

## Input Provide value of %Inh for this record tested with MYLK4: COc1ccc(Nc2nccc(N3CCC(NC(=O)Nc4cc(C)ccc4C)C3)n2)cc1 (centres unmarked)
## Output 0

## Input Provide value of %Inh for this record tested with MYLK4: c1ccc(-c2n[nH]cc2-c2ccnc3ccccc23)nc1
## Output 24

## Input Provide value of %Inh for this record tested with MYLK4: NCC(NC(=O)c1cc(-c2cn[nH]c2)c(-c2ccnc3[nH]ccc23)s1)c1ccccc1.O=C(O)C(F)(F)F.O=C(O)C(F)(F)F (centres unmarked)
## Output 100

## Input Provide value of %Inh for this record tested with MYLK4: COc1cc2ncn(-c3cc(OCc4sccc4Cl)c(C(N)=O)s3)c2cc1OC
## Output 72

====

tested on: TLK2; conditions: concentration: 1 μM, replicates: in singlicate; n = 1
Observation Type: %Inh
Quote the value and follow it with the unit of measurement.

## Input Give the measured %Inh of Fc1ccc(-c2ncn(CCCN3CCOCC3)c2-c2ccccn2)cc1 .
## Output 0%

## Input Give the measured %Inh of Fc1ccc(-c2nn3c(OCC(F)(F)F)cccc3c2-c2ccncc2)cc1 .
## Output 0%

## Input Give the measured %Inh of Cc1c2ccc(N(C)c3ccnc(Nc4cccc(S(N)(=O)=O)c4)n3)cc2nn1Cc1ccccc1.Cl.Cl .
## Output 12%

## Input Give the measured %Inh of O=C(Nc1n[nH]c2cc(-c3cccc(F)c3)ccc12)C1CC1 .
## Output 0%

====

test system: CAMKK1; conditions: concentration: 1 μM, replicates: in singlicate; n = 1
Observation Type: %Inh (%)
Report as a plain number; the unit % is understood.

## Input Give the measured %Inh of [2H]C([2H])(c1cccc(C(F)(F)F)c1C)n1ccn2c(=O)nc(N3CCOCC3)cc12 .
## Output 0

## Input Give the measured %Inh of Fc1ccc(-c2nn3c(OCC(F)(F)F)cccc3c2-c2ccncc2)cc1 .
## Output 8

## Input Give the measured %Inh of O=C(NCCNc1ccnc(Nc2ccc(F)cc2)n1)Nc1ccccc1F .
## Output 0

## Input Give the measured %Inh of O=c1cc(N2CCOCC2)nc2n(Cc3cccc4ccccc34)ccn12 .
## Output 0

## Input Give the measured %Inh of O=C(c1ccc(-c2cc(-c3c[nH]nc3-c3ccccn3)ccn2)cc1)N1CCOCC1 .
## Output 0

## Input Give the measured %Inh of Cc1cn2c(=O)cc(N3CCOCC3)nc2n1Cc1cccc(Cl)c1Cl .
## Output 30

====

tested on: GRK1; details: concentration: 1 μM, replicates: in singlicate; n = 1
%Inh: recorded values
Report as a plain number; the unit % is understood.

Here are 7 compounds together with their reported answers.
N#Cc1ccc(-c2cc(-c3c[nH]nc3-c3ccccn3)ccn2)cc1 [GW693028]
0
COc1ccc(Nc2nccc(N3CCC(NC(=O)Nc4cc(C)ccc4C)C3)n2)cc1 (centres unmarked) [GSK1379741]
0
CC(C)(CN)c1nc(-c2ccc(Cl)c(O)c2)c(-c2ccncc2)[nH]1.O=C(O)C(F)(F)F [SB-477794]
0
COc1cc2c(cc1OC[C@@H](O)CO)ncc1c3ccc(C#N)cc3[nH]c21
16
NS(=O)(=O)c1cccc(-c2ccc3nccc(-c4cccc(S(N)(=O)=O)c4)c3c2)c1 [GW867253]
27
COc1ccc(COc2cc(-n3cnc4ccccc43)sc2C(N)=O)cc1 [GSK1024304]
0
Cc1c(Cn2c(C)nn3c(=O)cc(N4CCOC(C)C4)nc23)cccc1C(F)(F)F (centres unmarked) [GSK2344444]
1

## Input Give the measured %Inh of COc1cc2c(cc1OCCN1CCN(C)CC1)ncc1c3ccc(C#N)cc3[nH]c21 .
## Output 32

====

tested on: CAMKK2; settings: concentration: 1 μM, replicates: in singlicate; n = 1
Threshold 20%. %Inh below it: y. %Inh at it or above: n.

CN1c2ccc(CNc3ccc(F)cc3)cc2-c2c(cnn2C)S1(=O)=O
y

## Input Bench note: check whether Cc1cccc(-c2nc(-c3ccc(S(C)(=O)=O)cc3)sc2-c2ccncc2)c1 shows %Inh below 20%
## Output y

## Input Bench note: check whether Cl.Nc1ncnc2occ(-c3ccc(NC(=O)Nc4cc(C(F)(F)F)ccc4F)cc3)c12 shows %Inh below 20%
## Output n

## Input Bench note: check whether Cc1nnc(-c2ccc3ncc(-c4ccc(S(C)=O)cc4)n3c2)o1 (stereo not drawn) shows %Inh below 20%
## Output n

====

test system: DYRK2; conditions: concentration: 1 μM, replicates: in singlicate; n = 1
Observation Type: %Inh (%)
Report as a plain number; the unit % is understood.

NCC(NC(=O)c1cc(-c2cn[nH]c2)c(-c2ccnc3[nH]ccc23)s1)c1ccccc1.O=C(O)C(F)(F)F.O=C(O)C(F)(F)F (centres unmarked)
79
O=c1cc(N2CCOCC2)nc2n(Cc3cccc(C(F)(F)F)c3)ccn12
5
O=C(NCCNc1ccnc(Nc2ccc(F)cc2)n1)c1cc2ccccc2s1
15
O=c1cc(N2CCOCC2)nc2n(Cc3cccc(F)c3)ccn12
5
COc1cc(Nc2nccc(N3CCC(NC(=O)c4cccc(NC(C)=O)c4)C3)n2)cc(OC)c1OC (centres unmarked)
28
COc1ccc(CNC(=O)NC2CCN(c3ccnc(Nc4ccc(OC)cc4)n3)C2)cc1 (centres unmarked)
0
Cc1nnc(-c2ccc(C)c(-c3ccc(C(=O)Nc4ccc(NS(C)(=O)=O)cc4)cc3)c2)o1
0

Then this compound:
## Input Provide value of %Inh for this record tested with DYRK2: NS(=O)(=O)CCc1cccc(Nc2nccc(-c3c(-c4cccc(NC(=O)c5c(F)cccc5F)c4)nn4ccccc34)n2)c1
## Output 12

====

tested on: BRK; construct: gene PTK6; conditions: concentration: 1 μM, replicates: in singlicate; n = 1
Decision: %Inh >= 9% yields class 1, all other cases yield class 0.

# example entries with known answers
Fc1ccc(-c2ncn(CCCN3CCOCC3)c2-c2ccccn2)cc1 [SB-211742]
class 0
c1ccc(-c2cc(-c3c[nH]nc3-c3ccccn3)ccn2)cc1 [GW576604]
class 0
COc1cc2c(cc1OCCN1CCN(C)CC1)ncc1c3ccc(C#N)cc3[nH]c21
class 1
Cl.Oc1cccc(Nc2ccnc3cc(-c4ccncc4)ccc23)c1 [GW494601]
class 1

## Input In plain terms: is recorded %Inh at least 9% for COc1ccc(COc2cc(-n3cnc4ccccc43)sc2C(N)=O)cc1 [GSK1024304] ?
## Output class 0

## Input In plain terms: is recorded %Inh at least 9% for c1ccc(-c2n[nH]cc2-c2ccnc3ccccc23)nc1 [GW271431] ?
## Output class 1

## Input In plain terms: is recorded %Inh at least 9% for C[C@@H](Oc1cc(-n2cnc3ccc(NC(=O)NC(C)(C)C)cc32)sc1C(N)=O)c1ccccc1Cl [GSK346294] ?
## Output class 1

====

system: CSNK1G3; settings: concentration: 1 μM, replicates: in singlicate; n = 1
Binning scheme for %Inh: lower segment: < 3%; middle segment: ≥ 3% and < 20%; upper segment: ≥ 20%

# example entries with known answers
N#Cc1ccc(-c2cc(-c3c[nH]nc3-c3ccccn3)ccn2)cc1 [GW693028]
middle segment
CC(C)(C)n1cnc2c(N)ncnc21 [SKF-97359]
lower segment
O=C(NCCNc1ccnc(Nc2ccc(F)cc2)n1)Nc1ccccc1F [GSK1379880]
middle segment
CN(C1=C(c2ccccc2)C(=O)NC1=O)c1ccccc1 [SB-334860]
upper segment
Cc1cccc(Cn2ccn3c(=O)cc(N4CCOCC4)nc23)c1 [GSK2297542]
upper segment

## Input Which class is correct for the following compound? Cc1ccc(C(=O)NCC(N)=O)cc1-n1c(C)cc(OCc2ccc(F)cc2F)c(Br)c1=O
## Output middle segment

## Input Which class is correct for the following compound? COc1ccc(Nc2nccc(N3CCC(NC(=O)Nc4cccc(C(C)=O)c4)C3)n2)cc1 (stereo not shown) [GSK1379731]
## Output lower segment

## Input Which class is correct for the following compound? Cc1c2ccc(N(C)c3ccnc(Nc4cccc(S(N)(=O)=O)c4)n3)cc2nn1Cc1ccccc1.Cl.Cl [GW787226]
## Output lower segment

## Input Which class is correct for the following compound? C[C@@H](Oc1cc(-n2cnc3ccc(NC(=O)NC(C)(C)C)cc32)sc1C(N)=O)c1ccccc1Cl [GSK346294]
## Output upper segment

## Input Which class is correct for the following compound? O=C(NCCNc1ccnc(Nc2ccc(F)cc2)n1)c1cc2ccccc2s1 [GSK1379874]
## Output upper segment

## Input Which class is correct for the following compound? NS(=O)(=O)c1cccc(-c2ccc3nccc(-c4cccc(S(N)(=O)=O)c4)c3c2)c1 [GW867253]
## Output lower segment

## Input Which class is correct for the following compound? CCc1nc(-c2cccc(C)c2)c(-c2ccnc(NCc3ccccc3)c2)s1
## Output lower segment

## Input Which class is correct for the following compound? COc1ccc(CNC(=O)NC2CCN(c3ccnc(Nc4ccc(OC)cc4)n3)C2)cc1 (stereo not shown) [GSK1379727]
## Output middle segment

## Input Which class is correct for the following compound? CN1c2ccc(CNc3ccc(F)cc3)cc2-c2c(cnn2C)S1(=O)=O
## Output lower segment

## Input Which class is correct for the following compound? CC(C)Oc1ccc2c(-c3ccnc(Nc4ccc(N5CCN(C)CC5)cc4)n3)cnn2n1 [GW696155]
## Output middle segment

## Input Which class is correct for the following compound? c1ccc(-c2n[nH]cc2-c2ccnc3ccccc23)nc1 [GW271431]
## Output upper segment

## Input Which class is correct for the following compound? O=c1cc(N2CCOCC2)nc2n(Cc3cccc(F)c3)ccn12 [GSK2297430]
## Output middle segment

## Input Which class is correct for the following compound? Fc1ccc(-c2ncn(CCCN3CCOCC3)c2-c2ccccn2)cc1 [SB-211742]
## Output lower segment

## Input Which class is correct for the following compound? Cc1nnc(-c2ccc3occ(-c4ccc(C(C)O)cc4)c3c2)o1 (stereo not shown)
## Output lower segment

## Input Which class is correct for the following compound? COc1ccc(COc2cc(-n3cnc4ccccc43)sc2C(N)=O)cc1 [GSK1024304]
## Output upper segment

## Input Which class is correct for the following compound? COc1ccc(Nc2ncc(C#N)c(Nc3ccccc3C(N)=O)n2)cc1N1CCN(C)CC1.Cl [GSK1558669]
## Output upper segment

## Input Which class is correct for the following compound? O=C(NCCCN1CCOCC1)c1cccc(Nc2nccc(Nc3ccc(Oc4ccccc4)cc3)n2)c1 [GW663929]
## Output middle segment

## Input Which class is correct for the following compound? O=C1NC(=O)C(N2CCc3ccccc32)=C1c1cccc(Cl)c1 [SB-408010]
## Output lower segment

## Input Which class is correct for the following compound? Fc1ccc(-c2ncn(CCCN3CCOCC3)c2-c2cccnc2)cc1 [SB-211743]
## Output middle segment

## Input Which class is correct for the following compound? O=c1cc(N2CCOCC2)nc2n(Cc3cccc(Cl)c3Cl)c(C3CC3)nn12 [GSK2358994]
## Output upper segment

## Input Which class is correct for the following compound? Fc1ccc(-c2nn3c(OCC(F)(F)F)cccc3c2-c2ccncc2)cc1 [GW514784]
## Output middle segment

## Input Which class is correct for the following compound? CC(=O)Nc1ccc(COc2ccc(Nc3ccnc4cc(-c5ccccn5)ccc34)cc2)cc1.Cl [GW440148]
## Output upper segment

## Input Which class is correct for the following compound? Cc1ccc(NC(=O)c2ccnc(N3CCN(C)CC3)c2)cc1-c1ccc(C(=O)NCC2CC2)cc1 [GW775604]
## Output lower segment

## Input Which class is correct for the following compound? COC(=O)Nc1nc2cc(Oc3ccc(NC(=O)Nc4cc(F)ccc4F)cc3)ccc2[nH]1.Cl [GW701424]
## Output upper segment

## Input Which class is correct for the following compound? CCn1cnc2c(N)ncnc21 [GW345098]
## Output middle segment
